protocol_summary: Selectivity index, ratio of CC50 for human MT4 cells to EC50 for HIV1 cells
Format: toxicity, cell-based
experimental_conditions: read-out: Ratio CC50/EC50
experimental_endpoint: selectivity ratio
Quick one: just the number, no unit, thanks!

Reference set (3 entries):
chemical_string=O=C1c2ccccc2C(=O)N1CCO/C(=N\c1ccc(F)cc1F)SS/C(=N/c1ccc(F)cc1F)OCCN1C(=O)c2ccccc2C1=O experimental_result=541
chemical_string=O=C1c2ccccc2C(=O)N1CCO/C(=N\c1ccc(I)cc1)SS/C(=N/c1ccc(I)cc1)OCCN1C(=O)c2ccccc2C1=O experimental_result=1600
chemical_string=COc1cccc(/N=C(\OCCN2C(=O)c3ccccc3C2=O)SS/C(=N/c2cccc(OC)c2)OCCN2C(=O)c3ccccc3C2=O)c1 experimental_result=61

Input line: If you can, please state the reported selectivity ratio value of O=C1c2ccccc2C(=O)N1CCO/C(=N\c1cccc(Cl)c1)SS/C(=N/c1cccc(Cl)c1)OCCN1C(=O)c2ccccc2C1=O .
Output line: 90

Input line: If you can, please state the reported selectivity ratio value of Cc1ccc(/N=C(\OCCN2C(=O)c3ccccc3C2=O)SS/C(=N/c2ccc(C)cc2)OCCN2C(=O)c3ccccc3C2=O)cc1 .
Output line: 525

Input line: If you can, please state the reported selectivity ratio value of O=C1c2ccccc2C(=O)N1CCO/C(=N\c1cc(F)ccc1F)SS/C(=N/c1cc(F)ccc1F)OCCN1C(=O)c2ccccc2C1=O .
Output line: 40

Input line: If you can, please state the reported selectivity ratio value of O=C1c2ccccc2C(=O)N1CCO/C(=N\c1c(F)cc(F)cc1F)SS/C(=N/c1c(F)cc(F)cc1F)OCCN1C(=O)c2ccccc2C1=O .
Output line: 33

Input line: If you can, please state the reported selectivity ratio value of O=C1c2ccccc2C(=O)N1CCO/C(=N\c1ccc(Cl)c([N+](=O)[O-])c1)SS/C(=N/c1ccc(Cl)c([N+](=O)[O-])c1)OCCN1C(=O)c2ccccc2C1=O .
Output line: 257

Input line: If you can, please state the reported selectivity ratio value of c1ccc(CCO/C(=N\c2ccccc2)SS/C(=N/c2ccccc2)OCCc2ccccc2)cc1 .
Output line: 6.4

Input line: If you can, please state the reported selectivity ratio value of O=C1c2ccccc2C(=O)N1CCO/C(=N\c1cccc(Cl)c1Cl)SS/C(=N/c1cccc(Cl)c1Cl)OCCN1C(=O)c2ccccc2C1=O .
Output line: 2.1

====

protocol_summary: Selectivity index, ratio of CC50 for human MT4 cells to EC50 for HIV1 cells
Type: toxicity, cell-based
experimental_conditions: read-out: Ratio CC50/EC50
experimental_endpoint: selectivity ratio
Quick one: just the number, no unit, thanks!

Reference set (3 entries):
chemical_string=O=C1c2ccccc2C(=O)N1CCO/C(=N\c1ccc(F)cc1)SS/C(=N/c1ccc(F)cc1)OCCN1C(=O)c2ccccc2C1=O experimental_result=1450
chemical_string=O=C1c2ccccc2C(=O)N1CCO/C(=N\c1cccc(Br)c1)SS/C(=N/c1cccc(Br)c1)OCCN1C(=O)c2ccccc2C1=O experimental_result=15
chemical_string=O=C1c2ccccc2C(=O)N1CCO/C(=N\c1ccccc1)SS/C(=N/c1ccccc1)OCCN1C(=O)c2ccccc2C1=O experimental_result=229

Input line: If you can, please state the reported selectivity ratio value of O=C1c2ccccc2C(=O)N1CCO/C(=N\c1ccccc1F)SS/C(=N/c1ccccc1F)OCCN1C(=O)c2ccccc2C1=O .
Output line: 36

Input line: If you can, please state the reported selectivity ratio value of O=C1c2ccccc2C(=O)N1CCO/C(=N\c1cccc(F)c1)SS/C(=N/c1cccc(F)c1)OCCN1C(=O)c2ccccc2C1=O .
Output line: 7.6

Input line: If you can, please state the reported selectivity ratio value of S=C(NCCc1ccccn1)Nc1ccc(Br)cn1 .
Output line: 3000

Input line: If you can, please state the reported selectivity ratio value of O=C1c2ccccc2C(=O)N1CCO/C(=N\c1cccc(C(F)(F)F)c1)SS/C(=N/c1cccc(C(F)(F)F)c1)OCCN1C(=O)c2ccccc2C1=O .
Output line: 9.6

Input line: If you can, please state the reported selectivity ratio value of COc1ccc(/N=C(\OCCN2C(=O)c3ccccc3C2=O)SS/C(=N/c2ccc(OC)cc2)OCCN2C(=O)c3ccccc3C2=O)cc1 .
Output line: 1500

====

protocol_summary: Cytotoxicity against human MT4 cells by MTT method
Format: cell-based
experimental_endpoint: CC50 (µM)
Please reply with the bare figure in µM and do not write the unit itself.

Reference set (3 entries):
chemical_string=O=C1c2ccccc2C(=O)N1CCO/C(=N\c1ccc(Br)cc1)SS/C(=N/c1ccc(Br)cc1)OCCN1C(=O)c2ccccc2C1=O experimental_endpoint=CC50 experimental_result=42
chemical_string=Cc1ccc(/N=C(\OCCN2C(=O)c3ccccc3C2=O)SS/C(=N/c2ccc(C)cc2)OCCN2C(=O)c3ccccc3C2=O)cc1 experimental_endpoint=CC50 experimental_result=21
chemical_string=O=C1c2ccccc2C(=O)N1CCO/C(=N\c1cccc(Br)c1)SS/C(=N/c1cccc(Br)c1)OCCN1C(=O)c2ccccc2C1=O experimental_endpoint=CC50 experimental_result=89

The record that follows has no CC50 shown yet.
Input line: If you can, please state the reported CC50 value of Cc1cc(Br)ccc1/N=C(\OCCN1C(=O)c2ccccc2C1=O)SS/C(=N/c1ccc(Br)cc1C)OCCN1C(=O)c2ccccc2C1=O .
Output line: 80

====

protocol_summary: Selectivity index, ratio of CC50 for human MT4 cells to EC50 for HIV1 cells
Format: toxicity, cell-based
experimental_conditions: read-out: Ratio CC50/EC50
experimental_endpoint: selectivity ratio

Reference set (2 entries):
chemical_string=O=C1c2ccccc2C(=O)N1CCO/C(=N\c1cccc([N+](=O)[O-])c1)SS/C(=N/c1cccc([N+](=O)[O-])c1)OCCN1C(=O)c2ccccc2C1=O experimental_endpoint="selectivity ratio" experimental_result="> 143"
chemical_string=O=C1c2ccccc2C(=O)N1CCO/C(=N\c1ccc(Cl)c(Cl)c1)SS/C(=N/c1ccc(Cl)c(Cl)c1)OCCN1C(=O)c2ccccc2C1=O experimental_endpoint="selectivity ratio" experimental_result="> 14"

Input line: If you can, please state the reported selectivity ratio value of Cc1cc(C)cc(/N=C(\OCCN2C(=O)c3ccccc3C2=O)SS/C(=N/c2cc(C)cc(C)c2)OCCN2C(=O)c3ccccc3C2=O)c1 .
Output line: > 33

====

protocol_summary: Cytotoxicity against human MT4 cells by MTT method
Assay type: cell-based
experimental_endpoint: CC50

chemical_string=N#Cc1ccc(/N=C(\OCCN2C(=O)c3ccccc3C2=O)SS/C(=N/c2ccc(C#N)cc2)OCCN2C(=O)c3ccccc3C2=O)cc1 experimental_endpoint=CC50 experimental_result="> 100 µM"
chemical_string=O=C1c2ccccc2C(=O)N1CCO/C(=N\c1cc(F)cc(F)c1)SS/C(=N/c1cc(F)cc(F)c1)OCCN1C(=O)c2ccccc2C1=O experimental_endpoint=CC50 experimental_result="37 µM"
chemical_string=O=C1c2ccccc2C(=O)N1CCO/C(=N\c1cccc(Cl)c1)SS/C(=N/c1cccc(Cl)c1)OCCN1C(=O)c2ccccc2C1=O experimental_endpoint=CC50 experimental_result="36 µM"
chemical_string=O=C1c2ccccc2C(=O)N1CCO/C(=N\c1cc(Cl)ccc1Cl)SS/C(=N/c1cc(Cl)ccc1Cl)OCCN1C(=O)c2ccccc2C1=O experimental_endpoint=CC50 experimental_result="> 100 µM"
chemical_string=O=C1c2ccccc2C(=O)N1CCO/C(=N\Cc1ccccc1)SS/C(=N/Cc1ccccc1)OCCN1C(=O)c2ccccc2C1=O experimental_endpoint=CC50 experimental_result="> 100 µM"
chemical_string=CC(=O)c1ccc(/N=C(\OCCN2C(=O)c3ccccc3C2=O)SS/C(=N/c2ccc(C(C)=O)cc2)OCCN2C(=O)c3ccccc3C2=O)cc1 experimental_endpoint=CC50 experimental_result="> 100 µM"

Input line: If you can, please state the reported CC50 value of O=C1c2ccccc2C(=O)N1CCO/C(=N\c1ccc(Cl)c(Cl)c1)SS/C(=N/c1ccc(Cl)c(Cl)c1)OCCN1C(=O)c2ccccc2C1=O .
Output line: > 100 µM

====

protocol_summary: Cytotoxicity against human MT4 cells by MTT method
Type: cell-based
Some molecules, each annotated with its measured CC50.
Please reply with the bare figure in µM and do not write the unit itself.

Reference set (3 entries):
chemical_string=O=C1c2ccccc2C(=O)N1CCO/C(=N\c1ccccc1Cl)SS/C(=N/c1ccccc1Cl)OCCN1C(=O)c2ccccc2C1=O experimental_endpoint=CC50 experimental_result=9
chemical_string=O=C1c2ccccc2C(=O)N1CCO/C(=N\c1ccc(I)cc1)SS/C(=N/c1ccc(I)cc1)OCCN1C(=O)c2ccccc2C1=O experimental_endpoint=CC50 experimental_result=48
chemical_string=O=C1c2ccccc2C(=O)N1CCO/C(=N\c1c(F)cc(F)cc1F)SS/C(=N/c1c(F)cc(F)cc1F)OCCN1C(=O)c2ccccc2C1=O experimental_endpoint=CC50 experimental_result=39

Input line: If you can, please state the reported CC50 value of O=C1c2ccccc2C(=O)N1CCO/C(=N\c1cccc(Cl)c1Cl)SS/C(=N/c1cccc(Cl)c1Cl)OCCN1C(=O)c2ccccc2C1=O .
Output line: 37

Input line: If you can, please state the reported CC50 value of O=C1c2ccccc2C(=O)N1CCO/C(=N\c1ccccc1F)SS/C(=N/c1ccccc1F)OCCN1C(=O)c2ccccc2C1=O .
Output line: 43

Input line: If you can, please state the reported CC50 value of O=C1c2ccccc2C(=O)N1CCO/C(=N\c1cccc(F)c1)SS/C(=N/c1cccc(F)c1)OCCN1C(=O)c2ccccc2C1=O .
Output line: 38

Input line: If you can, please state the reported CC50 value of O=C1c2ccccc2C(=O)N1CCO/C(=N\c1cc(F)ccc1F)SS/C(=N/c1cc(F)ccc1F)OCCN1C(=O)c2ccccc2C1=O .
Output line: 52

Input line: If you can, please state the reported CC50 value of c1ccc(CCO/C(=N\c2ccccc2)SS/C(=N/c2ccccc2)OCCc2ccccc2)cc1 .
Output line: 70

Input line: If you can, please state the reported CC50 value of O=C1c2ccccc2C(=O)N1CCO/C(=N\c1ccc(Cl)c([N+](=O)[O-])c1)SS/C(=N/c1ccc(Cl)c([N+](=O)[O-])c1)OCCN1C(=O)c2ccccc2C1=O .
Output line: 18

Input line: If you can, please state the reported CC50 value of COc1cccc(/N=C(\OCCN2C(=O)c3ccccc3C2=O)SS/C(=N/c2cccc(OC)c2)OCCN2C(=O)c3ccccc3C2=O)c1 .
Output line: 80

Input line: If you can, please state the reported CC50 value of O=C1c2ccccc2C(=O)N1CCO/C(=N\c1ccccc1)SS/C(=N/c1ccccc1)OCCN1C(=O)c2ccccc2C1=O .
Output line: 80

Input line: If you can, please state the reported CC50 value of O=C1c2ccccc2C(=O)N1CCO/C(=N\c1ccc(Cl)cc1)SS/C(=N/c1ccc(Cl)cc1)OCCN1C(=O)c2ccccc2C1=O .
Output line: 88

Input line: If you can, please state the reported CC50 value of O=C1c2ccccc2C(=O)N1CCO/C(=N\c1cccc(C(F)(F)F)c1)SS/C(=N/c1cccc(C(F)(F)F)c1)OCCN1C(=O)c2ccccc2C1=O .
Output line: 22

Input line: If you can, please state the reported CC50 value of O=C1c2ccccc2C(=O)N1CCO/C(=N\c1cc(Cl)cc(Cl)c1)SS/C(=N/c1cc(Cl)cc(Cl)c1)OCCN1C(=O)c2ccccc2C1=O .
Output line: 42

Input line: If you can, please state the reported CC50 value of O=C1c2ccccc2C(=O)N1CCO/C(=N\c1ccc(F)cc1)SS/C(=N/c1ccc(F)cc1)OCCN1C(=O)c2ccccc2C1=O .
Output line: 29

Input line: If you can, please state the reported CC50 value of COc1ccc(/N=C(\OCCN2C(=O)c3ccccc3C2=O)SS/C(=N/c2ccc(OC)cc2)OCCN2C(=O)c3ccccc3C2=O)cc1 .
Output line: 90

Input line: If you can, please state the reported CC50 value of O=C1c2ccccc2C(=O)N1CCO/C(=N\c1ccc(F)cc1F)SS/C(=N/c1ccc(F)cc1F)OCCN1C(=O)c2ccccc2C1=O .
Output line: 27

Input line: If you can, please state the reported CC50 value of Cc1ccccc1/N=C(\OCCN1C(=O)c2ccccc2C1=O)SS/C(=N/c1ccccc1C)OCCN1C(=O)c2ccccc2C1=O .
Output line: 11
